Values were extracted from the supplement of paper PMC9112550.

tested on: Escherichia coli TOP10; assay: shrunken log2 fold change of peptide-encoding DNA abundance (4.5 h post-induction vs induction); higher = less antimicrobial activity (less host growth inhibition); conditions: time post-induction: 4.5 h; library: site-saturation at positions 5, 18, 19, 20
Entries annotated with measured shrunken log2 fold change
Write no unit; give the number alone.

INSERT INTO results (chain, value_measured) VALUES
  ('RRIRGRPPRLPRPRPRPYKIPRP', -0.618);

Ask: Please give the measured shrunken log2 fold change for this sequence: RRIRFRPPRLPRPRPRPHATPRP
Result: -0.0624

Ask: Please give the measured shrunken log2 fold change for this sequence: RRIRGRPPRLPRPRPRPIQFPRP
Result: -0.146

Ask: Please give the measured shrunken log2 fold change for this sequence: RRIRVRPPRLPRPRPRPETPPRP
Result: 1.14

Ask: Please give the measured shrunken log2 fold change for this sequence: RRIRQRPPRLPRPRPRPVTLPRP
Result: -0.153

###

test system: Escherichia coli TOP10; assay: shrunken log2 fold change of peptide-encoding DNA abundance (4.5 h post-induction vs induction); higher = less antimicrobial activity (less host growth inhibition); conditions: time post-induction: 4.5 h; library: site-saturation at positions 5, 18, 19, 20;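 also: peptides expressed intracellularly from a pBAD plasmid library in pooled LB shake-flask culture, induced with 0.3% L-arabinose, DNA abundance read by NGS, three biological replicates, DESeq2 with apeglm shrinkage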
Output: class label from shrunken log2 fold change. Mapping: lower level = under -0.1, middle level = from -0.1 up to 0.02, upper level = 0.02 and over

Known results for sequences:
INSERT INTO results (chain, qualitative_label) VALUES
  ('RRIRERPPRLPRPRPRPHNTPRP', 'lower level'),
  ('RRIRMRPPRLPRPRPRPWHPPRP', 'lower level'),
  ('RRIRSRPPRLPRPRPRPQTWPRP', 'lower level'),
  ('RRIRVRPPRLPRPRPRPVVAPRP', 'upper level'),
  ('RRIRLRPPRLPRPRPRPNPGPRP', 'lower level');

Ask: Class (by measured shrunken log2 fold change) for RRIRLRPPRLPRPRPRPSHWPRP
Result: middle level

Ask: Class (by measured shrunken log2 fold change) for RRIRTRPPRLPRPRPRPHWLPRP
Result: upper level

Ask: Class (by measured shrunken log2 fold change) for RRIRQRPPRLPRPRPRPQYNPRP
Result: lower level

Ask: Class (by measured shrunken log2 fold change) for RRIRGRPPRLPRPRPRPLNVPRP
Result: middle level

Ask: Class (by measured shrunken log2 fold change) for RRIRRRPPRLPRPRPRPCHLPRP
Result: middle level

Ask: Class (by measured shrunken log2 fold change) for RRIRDRPPRLPRPRPRPRILPRP
Result: lower level

Ask: Class (by measured shrunken log2 fold change) for RRIRDRPPRLPRPRPRPRDPPRP
Result: upper level

Ask: Class (by measured shrunken log2 fold change) for RRIRFRPPRLPRPRPRPHLQPRP
Result: lower level

Ask: Class (by measured shrunken log2 fold change) for RRIRVRPPRLPRPRPRPHEKPRP
Result: upper level

Ask: Class (by measured shrunken log2 fold change) for RRIRQRPPRLPRPRPRPDATPRP
Result: upper level

Ask: Class (by measured shrunken log2 fold change) for RRIRGRPPRLPRPRPRPFCNPRP
Result: upper level

Ask: Class (by measured shrunken log2 fold change) for RRIRERPPRLPRPRPRPGACPRP
Result: middle level

Ask: Class (by measured shrunken log2 fold change) for RRIRPRPPRLPRPRPRPQGRPRP
Result: middle level

Ask: Class (by measured shrunken log2 fold change) for RRIRVRPPRLPRPRPRPFPRPRP
Result: middle level

Ask: Class (by measured shrunken log2 fold change) for RRIRRRPPRLPRPRPRPEGVPRP
Result: upper level

Ask: Class (by measured shrunken log2 fold change) for RRIRPRPPRLPRPRPRPFEAPRP
Result: lower level
